Ref: PubChem BioAssay AID489040

Target: CHO-XBP1 luciferase reporter, IRE1-XBP1 UPR activation
Assay: XBP1 luciferase reporter activation – CHO-XBP1 cells, luminescence, counter-screen for apoptotic UPR arm activators, dose response (AID 489040);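 further: reporter read after six hours of compound exposure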
Active and inactive are the calls of the source.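 How the source made its calls: active means mean half-maximal activating concentration from the dose-response fit at or below a set limit; inactive means the rest.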
Classes used: true for active, false for inactive

- compound: "O=C(COc1ccc2ccccc2c1)N1CCN(Cc2c[nH]c3ccccc23)CC1"
  assignedCategory: "false"
- compound: "CCOc1ccccc1N=Cc1c(O)c2ccccc2oc1=O"
  assignedCategory: "true"
- compound: "C/C(=N\\NC(=O)c1ccc(F)cc1)c1ccccn1"
  assignedCategory: "false"
- compound: "C=CCN=c1scc(-c2ccco2)n1/N=C/c1ccc(O)c(O)c1O"
  assignedCategory: "false"
- compound: "COc1ccccc1/C=N\\Nc1cc(C)nc(-n2nc(C)cc2C)n1"
  assignedCategory: "false"
- compound: "COc1cc(CN2CCN(c3cc(C)ccc3C)CC2)ccc1O"
  assignedCategory: "false"
- compound: "C=CCn1nc([N+](=O)[O-])nc1Sc1cccc2cccnc12"
  assignedCategory: "false"
- compound: "Cc1nn(-c2ccccc2)c(C)c1/C=N/NC(=O)CSc1nc2ccccc2c(=O)n1-c1ccc(Br)cc1"
  assignedCategory: "true"
- compound: "CCCOc1ccc(N2C(=O)CC(N(O)c3ccccc3)C2=O)cc1 (configuration not stated)"
  assignedCategory: "false"
- compound: "Cc1ccc(Sc2nc(-c3ccccc3)nnc2C(F)(F)F)cc1"
  assignedCategory: "false"
- compound: "Cc1cc(C)n(-c2nc(NC(C)(C)C)nc(NC(C)(C)C)n2)n1"
  assignedCategory: "false"
- compound: "c1ccc(CSC2=NNC(c3ccccn3)S2)cc1 (configuration not stated)"
  assignedCategory: "false"
- compound: "CC1(C)CC(=O)C(=Cc2cn(-c3ccccc3)nc2-c2ccccc2)C(=O)C1"
  assignedCategory: "false"
- compound: "O=C(Nc1ccc(C(F)(F)F)cc1)c1cc(-c2cccnc2)nc2ccc(Br)cc12"
  assignedCategory: "true"
- compound: "CCOc1ccc(NC(=S)NC(=O)/C=C/c2ccc(OC)c(OC)c2)c([N+](=O)[O-])c1"
  assignedCategory: "false"
- compound: "Cc1nn(Cc2c(Cl)cccc2Cl)c(C)c1NC(=O)c1sc2ccccc2c1Cl"
  assignedCategory: "false"
- compound: "COc1nc(N)nc(NC(=O)c2cccs2)c1N=O"
  assignedCategory: "false"
- compound: "O=C1NC(=O)N(Cc2ccccc2Cl)C(=O)/C1=C/c1cccs1"
  assignedCategory: "false"
- compound: "Cc1cc(-n2c(C)cc(C(=O)CCl)c2C)no1"
  assignedCategory: "false"
- compound: "O=C(Nc1nc(-c2ccccn2)cs1)c1ccc(Cl)s1"
  assignedCategory: "false"
- compound: "Cc1cccc2sc(NC(=O)c3cc(S(=O)(=O)N(C)C)ccc3N3CCCC3)nc12"
  assignedCategory: "true"
- compound: "COc1ccc(N2C(=O)/C(=C/C=C/c3ccccc3[N+](=O)[O-])C(=O)NC2=S)cc1"
  assignedCategory: "false"

* * *

Target: CHO-XBP1 luciferase reporter, IRE1-XBP1 UPR activation
Experiment: XBP1 luciferase reporter activation – CHO-XBP1 cells, luminescence, counter-screen for apoptotic UPR arm activators, dose response (AID 489040);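 further: reporter read after six hours of compound exposure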
Calls of active or inactive are those of the source.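 The calls were made as follows: active = mean half-maximal activating concentration from the dose-response fit at or below a set limit; inactive = the rest.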
# key: entry, value: EC50
readout: EC50

- smilesNotation: "O=C(CSc1ccccn1)Nc1nonc1[N+](=O)[O-]"
  observedResult: "> 80 µM (inactive)"
- smilesNotation: "COc1ccc(N2C(=O)/C(=C/c3cccs3)C(=O)NC2=S)cc1"
  observedResult: "> 80 µM (inactive)"
- smilesNotation: "Cc1sc(NC(=O)c2cc(-c3ccc(Cl)cc3)nc3ccccc23)c(C(N)=O)c1C"
  observedResult: "15.2 µM"
- smilesNotation: "O=C(N/N=C/c1ccccn1)c1cc(-c2ccccc2)nc2ccccc12"
  observedResult: "> 80 µM (inactive)"
- smilesNotation: "O=C1Nc2ccc(Br)cc2/C1=N/N=C/C1=C(N2CCOCC2)C(=C\\c2ccccc2)/CC1"
  observedResult: "> 80 µM (inactive)"
- smilesNotation: "COc1ccc(-n2c(C)cc(C(=O)CCl)c2C)cc1"
  observedResult: "4.68 µM"
- smilesNotation: "COc1cc(/C=C(/C(=O)c2cccs2)c2nc3ccccc3[nH]2)cc(OC)c1O"
  observedResult: "> 80 µM (inactive)"

* * *

Molecular target: CHO-XBP1 luciferase reporter, IRE1-XBP1 UPR activation
Experiment: XBP1 luciferase reporter activation – CHO-XBP1 cells, luminescence, counter-screen for apoptotic UPR arm activators, dose response (AID 489040);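 further: reporter read after six hours of compound exposure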
Calls of active or inactive are those of the source.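 Rule for the calls: active = mean half-maximal activating concentration from the dose-response fit at or below a set limit; inactive = the rest.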
Outcomes: y for active, n for inactive

- molecule: "O=C1C(Cl)=C(NC(=O)c2ccccc2)C(=O)C(Cl)=C1NC(=O)c1ccccc1"
  assignedCategory: "n"
- molecule: "O=C(CN(c1cccc(C(F)(F)F)c1)S(=O)(=O)c1ccc(Cl)c([N+](=O)[O-])c1)NCc1ccc(F)cc1"
  assignedCategory: "n"
- molecule: "CCc1cccc(CC)c1NC(=O)/C(C#N)=C/c1ccccc1C(F)(F)F"
  assignedCategory: "n"
- molecule: "COc1ccc(C2=CC(=O)N(Nc3ccccc3)C2=O)cc1"
  assignedCategory: "n"
- molecule: "CCn1cc(C(=O)NC(=S)Nc2sc3c(c2C(=O)OC)CCCCCC3)cn1"
  assignedCategory: "n"
- molecule: "CN(C)S(=O)(=O)c1cccc(NC(=O)CSc2cccc3cccnc23)c1"
  assignedCategory: "n"
- molecule: "CCOC(=O)C1=C(Cc2ccc(Cl)cc2)C(=O)c2ccccc2C1=O"
  assignedCategory: "n"
- molecule: "O=C(Nc1ccc2oc(-c3ccc4ccccc4c3)nc2c1)c1ccc2c(c1)OCCO2"
  assignedCategory: "n"
- molecule: "COc1ccccc1C(=O)NC(=S)NNC(=O)c1sc2ccccc2c1Cl"
  assignedCategory: "n"
- molecule: "C/C(=N\\NC(=O)C(C)Oc1ccc([N+](=O)[O-])cc1)c1ccccn1 (stereo unspecified)"
  assignedCategory: "n"
- molecule: "CCOc1cc(/C=C2/C(=N)N3C=CSC3=NC2=O)ccc1OCCCOc1ccccc1C"
  assignedCategory: "y"
- molecule: "O=C(Oc1c(CN2CCOCC2)cc(Cl)c2cccnc12)c1ccc(F)cc1"
  assignedCategory: "n"
- molecule: "COC(=O)[C@@H]1[C@@H](C#N)C2(c3ccccc3-c3ccccc32)N(c2ccc(Cl)cc2)N1C#N"
  assignedCategory: "n"
- molecule: "COC(=O)c1c(NC(=O)c2ccc([N+](=O)[O-])o2)sc2c1CCN(C(C)C)C2"
  assignedCategory: "n"
- molecule: "Cc1cc(NC(=O)c2cc(-c3ccccn3)nc3ccc(Br)cc23)no1"
  assignedCategory: "n"
- molecule: "COc1cc(/C=C(/C#N)c2nc3ccccc3[nH]2)ccc1OCC(=O)Nc1ccccc1C"
  assignedCategory: "n"
- molecule: "CCn1c(O)c(C2=c3ccccc3=NC2=O)c2cc(Br)ccc21"
  assignedCategory: "n"
- molecule: "Cc1cc(N/N=C/c2ccccc2[N+](=O)[O-])nc(-n2nc(C)cc2C)n1"
  assignedCategory: "n"
- molecule: "S=C(Nc1ccccc1)c1ccccn1"
  assignedCategory: "n"
- molecule: "CCCN1C/C(=C/c2ccc3c(c2)OCO3)C(=O)/C(=C/c2ccc3c(c2)OCO3)C1"
  assignedCategory: "n"
- molecule: "Nc1nnnn1/N=C/C(Br)=C/c1ccccc1"
  assignedCategory: "n"

* * *

Molecular target: CHO-XBP1 luciferase reporter, IRE1-XBP1 UPR activation
Experiment: XBP1 luciferase reporter activation – CHO-XBP1 cells, luminescence, counter-screen for apoptotic UPR arm activators, dose response (AID 489040);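 further: reporter read after six hours of compound exposure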
The source made the active and inactive calls.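 Rule for the calls: active = mean half-maximal activating concentration from the dose-response fit at or below a set limit; inactive = the rest.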
Possible outcomes: 1 (active), 0 (inactive)

- molecule: "Cc1noc2ncnc(Sc3ccc(Cl)cc3)c12"
  assignedCategory: 0
- molecule: "CCOc1ccc(-n2c(C)cc(C(=O)CCl)c2C)cc1"
  assignedCategory: 1
- molecule: "O=C(Cn1cc(/C=C\\[N+](=O)[O-])c2ccccc21)Nc1ccccc1"
  assignedCategory: 0
- molecule: "Cc1ccc(Cc2cnc(NC(=O)/C(C#N)=C/c3ccc(-c4cccc([N+](=O)[O-])c4)o3)s2)cc1"
  assignedCategory: 1
- molecule: "Cc1ccc(C(C[N+](=O)[O-])n2nc(C)cc2C)cc1 (stereo unspecified)"
  assignedCategory: 0
- molecule: "O=C(C=C=Nc1ccccc1)C(=O)N=C=Cc1ccccc1"
  assignedCategory: 0
- molecule: "COc1ccc(-c2cc3ccccc3oc2=O)cc1NC(=S)NC(=O)c1ccc2c(c1)OCCO2"
  assignedCategory: 1
- molecule: "CC(=O)N(\\C=C/C=C/C=C1\\Sc2ccccc2C1=O)c1ccccc1"
  assignedCategory: 0
- molecule: "C/C(=N\\NC(=O)c1cc(Br)ccc1O)c1ccccn1"
  assignedCategory: 0
- molecule: "CC(C)c1ccc(NC(=O)/C(C#N)=C/c2ccncc2)cc1"
  assignedCategory: 0
- molecule: "COc1cccc2sc(N3CCN(c4nc5ccccc5s4)CC3)nc12"
  assignedCategory: 1
